# Test system: rice (Oryza sativa) seeds, germ
# ASSAY_METHOD_TEXT: Inhibition of germ elongation of rice seeds
# PROTOCOL_CONDITIONS: 20 µg/mL; 48 h, 25 °C, dark; mean of triplicate ± SD
Each item that follows carries a reported Inhibition Ratio (%) Seed Germ Var. Lijiang.
Supply the numeric figure in %, leaving out any unit text.

COMPOUND | RESULT
CC[C@@]1(C)Oc2cc(c([S+]([O-])C[C@@H](O)C[C@H](N)C(=O)O)cc2O)[C@@H](O)[C@H](NC)C(=O)N[C@@H](C(C)C)C(=O)N[C@@H]1C(=O)NCC(=O)O (stereo partly drawn) [Ustiloxin A (2), ustiloxin A] | 18.00
CC[C@@]1(C)Oc2cc(ccc2O)[C@@H](O)[C@H](NC)C(=O)N[C@@H](C(C)C)C(=O)N[C@@H]1C(=O)NCC(=O)O [Ustiloxin D (4), ustiloxin D] | 11.67
CC[C@@]1(C)Oc2cc(c([S+]([O-])CCO)cc2O)[C@@H](O)[C@H](NC)C(=O)N[C@@H](C(C)C)C(=O)N[C@@H]1C(=O)NCC(=O)O (stereo partly drawn) [Ustiloxin G (1), ustiloxin G] | 8.89

Turning now to a further record.
Indicate its recorded Inhibition Ratio (%) Seed Germ Var. Lijiang; the compound in question is CC[C@@]1(C)Oc2cc(c([S+]([O-])C[C@@H](O)C[C@H](N)C(=O)O)cc2O)[C@@H](O)[C@H](NC)C(=O)N[C@@H](C)C(=O)N[C@@H]1C(=O)NCC(=O)O (stereo partly drawn) [Ustiloxin B (3), ustiloxin B] 20.63
